# Experimental System: T1, human/mouse CD137 chimera 1554
# T1 construct: on transfected FreeStyle 293-F cells
# Method Description: flow cytometry, 293-F cells with CD137 chimera
Listing of recorded MFI/isotype control normalized to full-length human CD137 by entry.
I only need the number, thanks.

Problem: Which MFI/isotype control normalized to full-length human CD137 reading was recorded for the binder 1626/1627 (antibody, V domains shown) VH: EVQLLESGGGLVQPGGSLRLSCAASGFTFGGYSMYWVRQAPGKGLEWVSSIGGYYYSTYYADSVKGRFTISRDNSKNTLYLQMNSLRAEDTAVYYCARSYYGSIDYWGQGTLVTVSS VL: DIQMTQSPSSLSASVGDRVTITCRASQSISSYLNWYQQKPGKAPKLLIYAASSLQSGVPSRFSGSGSGTDFTLTISSLQPEDFATYYCQQGTGYGPLTFGQGTKLEIK ?
Result: 0.12

Now, please, on to the next binder.
Problem: Which MFI/isotype control normalized to full-length human CD137 reading was recorded for the binder 1618/1619 (antibody, V domains shown) VH: EVQLLESGGGLVQPGGSLRLSCAASGFTFSYGSMYWVRQAPGKGLEWVSSISSGSGSTYYADSVKGRFTISRDNSKNTLYLQMNSLRAEDTAVYYCARSSYYGSYYSIDYWGQGTLVTVSS VL: DIQMTQSPSSLSASVGDRVTITCRASQSISSYLNWYQQKPGKAPKLLIYAASSLQSGVPSRFSGSGSGTDFTLTISSLQPEDFATYYCQQYYDNLPTFGQGTKLEIK ?
Result: 1.01
